experiment: Plasma pharmacokinetics, healthy subjects; assay type: in vivo, human; settings: human; plasma analyte; healthy subjects; remogliflozin etabonate 500 mg oral dose; read-out: Tmax Median
OBSERVED PROPERTY: Tmax (h)
Respond numerically; units are h and should not be typed.

>>> reported_result("Cc1c(Cc2ccc(OC(C)C)cc2)c(O[C@@H]2O[C@H](CO)[C@@H](O)[C@H](O)[C@H]2O)nn1C(C)C [Remogliflozin, remogliflozin]")
1.5

For the next question, use this compound.
In one line, give reported Tmax of the entry Cc1[nH]nc(O[C@@H]2O[C@H](CO)[C@@H](O)[C@H](O)[C@H]2O)c1Cc1ccc(OC(C)C)cc1 [GSK279782] .
1.5
